# system: RORα (Homo sapiens)
# Construct: expressed in transfected cells; host or cells: CV-1 cells (ATCC CCL-70)
# Sequence (P35398 whole entry): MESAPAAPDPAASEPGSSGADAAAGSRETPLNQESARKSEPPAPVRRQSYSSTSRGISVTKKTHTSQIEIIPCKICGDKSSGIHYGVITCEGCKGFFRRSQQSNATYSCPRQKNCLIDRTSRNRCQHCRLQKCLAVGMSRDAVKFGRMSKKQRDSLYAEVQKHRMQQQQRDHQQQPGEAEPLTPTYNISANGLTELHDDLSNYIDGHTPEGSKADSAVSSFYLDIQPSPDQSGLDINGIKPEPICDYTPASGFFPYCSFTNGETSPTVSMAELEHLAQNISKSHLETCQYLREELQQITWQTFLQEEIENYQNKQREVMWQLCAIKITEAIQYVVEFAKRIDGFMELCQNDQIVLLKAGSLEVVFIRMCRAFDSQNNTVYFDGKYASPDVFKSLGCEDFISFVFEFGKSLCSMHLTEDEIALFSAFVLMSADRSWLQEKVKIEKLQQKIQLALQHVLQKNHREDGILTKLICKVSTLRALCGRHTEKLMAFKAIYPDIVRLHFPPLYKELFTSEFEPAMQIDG
# experimental.protocol: Transcriptional activity of RORα, RORE-tk-Luc reporter in CV-1 cells (Experimental Example 1)
# Assay type: cell-based
# condition.details: JC1 compounds 100 μM, 24 hours; luciferase activity standardized by β-gal; versus control treated only with solvent
metric.name: Fold Activation
Lab note: write the figure by itself, no unit.

Some compounds with recorded Fold Activation:
CNC(=S)NCc1ccc(OCc2ccccc2)cc1 [Compound 40, 1-(4-benzyloxy-benzyl)-3-methyl-thiourea] :: 3.6
CNC(=S)NCc1cccc(Cl)c1Cl [Compound 33] :: 0.7
CCOc1ccccc1CNC(=S)NC [Compound 16, 1-(2-ethoxy-benzyl)-3-methyl-thiourea] :: 1.4

// next item, Fold Activation requested
Q. What Fold Activation appears in the records for this compound with RORα (Homo sapiens)? CNC(=S)NCc1cc(OC)cc(OC)c1 [Compound 20]
A. 1.0
